# Test system: Rattus norvegicus
# protocol-description: Percent efficacy (reduction in blood glucose) at 70 umol/kg in STZ diabetic rats after 8.25 days.
# Type: functional
Please go through the items and note down their Efficacy.

INPUT: Param readout= Efficacy; system= Rattus norvegicus; entry= COCC(COC)OC(=O)c1ccc(C(=O)C(C)(C)C)cc1 ; returns value.
OUTPUT: <75.8%

INPUT: Request - read-out Efficacy | tested on Rattus norvegicus | compound Cc1ccc(C2(C(C)(C)C)OCCO2)cc1
OUTPUT: <52%

INPUT: I'm curious: which Efficacy was measured for CCCCCCCCCCCCCCCC(=O)OC(CO)COC(=O)c1ccc(C(=O)C(C)(C)C)cc1 (centres undefined) tested on Rattus norvegicus?
OUTPUT: <69.8%

INPUT: Which measured Efficacy belongs to CC(C)(C)C(=O)c1ccc(C(=O)OC(CO)CO)cc1 , tested on Rattus norvegicus?
OUTPUT: <67.4%

INPUT: Value wanted: Efficacy (Rattus norvegicus) of entry CCCCCCCCCCCCCCCC(=O)OCC(COC(=O)CCCCCCCCCCCCCCC)OC(=O)CCc1ccc(C(=O)C(C)(C)C)cc1
OUTPUT: <84%

INPUT: For Rattus norvegicus, provide Efficacy of CC(C)(C)C(O)c1ccc(C(=O)OCC(COC(=O)c2ccc(C(O)C(C)(C)C)cc2)OC(=O)c2ccc(C(O)C(C)(C)C)cc2)cc1 (centres undefined) please.
OUTPUT: 49.8%

INPUT: // lookup Efficacy | system=Rattus norvegicus | key= CC(C)(C)C(=O)c1ccc(C(=O)OCC(O)CO)cc1 (centres undefined)
OUTPUT: 41.6%

INPUT: Entry CC(C)(C)C(=O)c1ccc(COCC2(COCc3ccc(C(=O)C(C)(C)C)cc3)CCCO2)cc1 , system Rattus norvegicus: what Efficacy was measured?
OUTPUT: 45.6%

INPUT: Record lookup: for Rattus norvegicus, what Efficacy belongs to CCCCCCCCCCCCCCCC(=O)OCC(COC(=O)c1ccc(C(=O)C(C)(C)C)cc1)OC(=O)CCCCCCCCCCCCCCC (centres undefined) ?
OUTPUT: <75.7%
